Values from paper PMC10288926

Kindly supply the reported IC50 values for the records listed here.
- Tested on: NCI-H3122 cell line harbouring EML4-ALK fusion
- experiment: Antiproliferative MTT assay, NCI-H3122
- Format: cell-based, human
- condition-notes: Homo sapiens, NCI-H3122, 72 h, read-out: Cellular IC50 (μM) NCI-H3122
Answers are plain numbers, in µM.

Previously resolved entries follow.
- structure-as-smiles: "C[C@@H](Oc1cc(-c2cccn2C)cnc1N)c1ccccc1-c1ccccc1"
  IC50, µM: 24.8
- structure-as-smiles: "CCCn1cc(-c2cnc(N)c(O[C@H](C)c3ccccc3-c3ccnn3C)c2)cn1"
  IC50, µM: 96.2
- structure-as-smiles: "C[C@@H](Oc1cc(-c2cnn(C)c2)cnc1N)c1ccccc1"
  IC50, µM: 149
- structure-as-smiles: "CCCn1cc(-c2cnc(N)c(O[C@H](C)c3ccccc3-c3ccccc3)c2)cn1"
  IC50, µM: 13.9
- structure-as-smiles: "CCCn1cc(-c2cnc(N)c(O[C@H](C)c3ccccc3F)c2)cn1"
  IC50, µM: 36.8

// each listed compound needs a value for IC50
1. C[C@@H](Oc1cc(-c2cccn2C)cnc1N)c1ccccc1F
2. C[C@@H](Oc1cc(-c2cnn(C)c2)cnc1N)c1ccccc1-c1ccccc1
3. C[C@@H](Oc1cc(-c2cnn(C)c2)cnc1N)c1ccccc1F
4. CCn1cc(-c2cnc(N)c(O[C@H](C)c3ccccc3)c2)cn1
5. C[C@@H](Oc1cc(-c2cccn2C)cnc1N)c1ccccc1-c1ccnn1C
6. C[C@@H](Oc1cc(-c2cnn(C)c2)cnc1N)c1ccccc1-c1ccnn1C
7. C[C@@H](Oc1cc(-c2ccnn2C)cnc1N)c1ccccc1

**Result**
1: 168; 2: 5.7; 3: 10.2; 4: 101; 5: 186; 6: 207; 7: 152
